testDetails: inhibitors of TNFa-induced NFkB p65 translocation, primary screen, imaging, HUVEC, MLSMR starter and 10KST1 sets (AID 438);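 note: compound added about 3h40 before a 20 min TNFalpha stimulation; signal is the nuclear over cytoplasmic p65 intensity ratio per well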
testContext: HUVEC TNFa-induced p65 nuclear translocation; at 2 µM, stronger effect = higher value, 0% TNFa-plus-vehicle, 100% no-TNFa wells
Measured inhibition of individual entries
Kindly provide the numeric value in % only, without the unit symbol.

Example results:
Can you share its inhibition? I mean this compound: CCOc1ccccc1NC(=O)NC1CCN(CC(=O)Nc2ccc3c(c2)OCCO3)CC1
-4.8

Given CCOC(=O)c1[nH]c2ccccc2c1N=C(C)N(CC)CC , state its recorded inhibition.
-7

Look up inhibition for this compound: COc1ccccc1CNC(=O)N[C@@H](Cc1ccccc1)C(=O)O
0.9

Consider the compound Cc1ccc(-c2csc3ncn(-n4c(C)ccc4C)c(=O)c23)o1 and give its measured inhibition.
6.1

Quick check: inhibition of Cc1ccc(S(=O)(=O)N2CCN(S(=O)(=O)N(C)C)CC2)cc1 ?
4.3

Others:
For the compound Cc1cc2n(n1)C(c1ccccc1)Nc1ccccc1-2 (stereo unspecified) , what inhibition is on record?
-1.3

Look up inhibition for this compound: CCCn1c(SCC(=O)Nc2ccccc2C(=O)OC)nc2c1c(=O)n(C)c(=O)n2C
-10.9

---

target: Voltage-gated potassium channel subunit beta-2 (Rattus norvegicus) (UniProt P62483)
Sequence (P62483 whole entry, looked up): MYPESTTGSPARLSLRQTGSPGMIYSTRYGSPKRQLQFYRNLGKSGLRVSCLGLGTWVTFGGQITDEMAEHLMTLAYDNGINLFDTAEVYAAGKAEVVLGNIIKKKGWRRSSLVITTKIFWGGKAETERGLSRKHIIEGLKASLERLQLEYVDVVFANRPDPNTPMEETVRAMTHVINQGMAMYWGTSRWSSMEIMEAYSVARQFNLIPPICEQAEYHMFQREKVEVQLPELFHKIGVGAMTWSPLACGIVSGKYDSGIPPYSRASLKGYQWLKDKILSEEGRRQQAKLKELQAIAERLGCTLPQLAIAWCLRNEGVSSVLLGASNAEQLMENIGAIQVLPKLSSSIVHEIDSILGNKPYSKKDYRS
testDetails: KvBeta enzyme negative modulators, primary screen, biochemical, NADPH fluorescence (AID 622);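 note: slope of raw intensity against log time taken from 70 to 1610 s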
testContext: recombinant KvBeta, 4-cyanobenzaldehyde reduction, at 10 µM, stronger effect = higher value
Assign condition met to entries whose fluorescence slope meets or exceeds -0.4; assign condition not met to the rest.

Answered examples (4):
Decide: is the reported value of fluorescence slope for CC(=O)OC1CSc2nc3ccccc3n2C1 (configuration not stated) equal to or greater than -0.4?
condition met

hey, is fluorescence slope for this one >= -0.4? CCOC(=O)/C(C#N)=C1/SC(CCO)C(=O)N1c1ccccc1 (configuration not stated)
condition met

Dear colleague, could you confirm whether CC1(C)CC(=O)C(C(=O)CCCCC(=O)C2C(=O)CC(C)(C)CC2=O)C(=O)C1 has fluorescence slope at or above -0.4?
condition not met

Does the reported fluorescence slope for COCCNC(=O)c1cc(-c2cccs2)on1 fall at or above the -0.4 mark?
condition not met

New cases:
Textbook exercise: given the entry Cc1cccc2cc(CN(CCCO)C(=O)Nc3ccc(Cl)cc3)c(=O)[nH]c12 , state whether its fluorescence slope is greater than or equal to -0.4.
condition not met

Can O=C(NCC1CCCO1)c1ccc(C(=O)NCC2CCCO2)cc1 (configuration not stated) be said to have fluorescence slope at or above -0.4?
condition met

Is fluorescence slope at least -0.4? Consider COCCn1c(=N)c(C(=O)NCCc2ccccc2)cc2c(=O)n3cccc(C)c3nc21
condition met

Determine whether measured fluorescence slope meets or exceeds -0.4 for COc1ccc(CSC2=NCCN2)cc1Cl
condition not met

Hi team, for CCOc1ccc(C2C(C#N)=C(N)Oc3cc(C)n(Cc4ccco4)c(=O)c32)cc1OC (configuration not stated) , is the recorded fluorescence slope at or above -0.4?
condition not met

hey, is fluorescence slope for this one >= -0.4? CN1CCc2c(sc3c2c(=O)n(-c2cccc(Cl)c2)c2nncn32)C1
condition not met

Confirm if fluorescence slope reported for the compound CCCCN(C(=O)c1ccc(Cl)cc1)C1CC2CCC(C1)N2C (configuration not stated) is -0.4 or above.
condition not met

Check if fluorescence slope >= -0.4 (inclusive). Item: Cc1csc2ncc(C(=O)N3CCc4ccccc43)c(=O)n12
condition not met

Could you please find out whether NC(=O)/C(=N\O)c1ccccc1 has fluorescence slope that meets -0.4 or exceeds it?
condition not met

Would you say CCc1ccc2[nH]c(=O)c(C(c3nnnn3CC3CCCO3)N3CCCc4ccccc43)cc2c1 (configuration not stated) shows fluorescence slope at minimum -0.4?
condition not met

Entry COc1ccc2[nH]c(C)c(C(=O)CN3CCOCC3)c2c1 : is its fluorescence slope no less than -0.4?
condition not met

Answer whether fluorescence slope of CCOC(=O)N1CCC(Nc2nc3ccccc3n3cnnc23)CC1 is greater than or equal to -0.4.
condition not met

Is it the case that Clc1ccc(C2=Nn3c(nnc3-c3n[nH]c4c3CCC4)SC2)cc1Cl has fluorescence slope reaching or exceeding -0.4?
condition not met
